These measurements were taken from ChEMBL document CHEMBL3351276.

# Tested on: Sterol 14-alpha demethylase (Trypanosoma cruzi (strain CL Brener)) (UniProt Q7Z1V1)
# Sequence (Q7Z1V1 whole entry, looked up): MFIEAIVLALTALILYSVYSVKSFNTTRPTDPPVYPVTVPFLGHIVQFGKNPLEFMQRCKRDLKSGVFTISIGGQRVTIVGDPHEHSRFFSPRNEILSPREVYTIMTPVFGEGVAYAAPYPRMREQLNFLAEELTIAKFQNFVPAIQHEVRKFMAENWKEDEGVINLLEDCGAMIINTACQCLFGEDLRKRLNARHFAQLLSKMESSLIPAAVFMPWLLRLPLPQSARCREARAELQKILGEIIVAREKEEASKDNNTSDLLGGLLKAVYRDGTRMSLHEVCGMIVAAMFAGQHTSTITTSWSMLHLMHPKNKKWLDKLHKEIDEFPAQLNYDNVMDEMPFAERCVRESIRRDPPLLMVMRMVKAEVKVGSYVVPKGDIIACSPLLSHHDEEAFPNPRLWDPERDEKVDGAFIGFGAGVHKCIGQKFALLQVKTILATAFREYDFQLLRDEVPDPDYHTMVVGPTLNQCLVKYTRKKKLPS
# Measurement notes: Inhibition of Trypanosoma cruzi CYP51 assessed as substrate conversion level using [3H]eburicol substrate at inhibitor/enzyme molar ratio of 2 after 1 hr by HPLC method
# Design: scale not given: the % may be the effect or the level left
Parameter: Activity (%)

[[record]]
structure_smiles_string = "O=C(Nc1ccc(Sc2ccc([N+](=O)[O-])cc2)cc1)O[C@@H](Cn1ccnc1)c1ccc(Cl)cc1"
value_units = "%"
recorded_result = 52.5

[[record]]
structure_smiles_string = "CC(C)c1ccc(NC(=O)O[C@H](Cn2ccnc2)c2ccc(Cl)cc2)cc1"
value_units = "%"
recorded_result = 1.9

[[record]]
structure_smiles_string = "CC(C)c1ccc(NC(=O)O[C@@H](Cn2ccnc2)c2ccc(F)cc2)cc1"
value_units = "%"
recorded_result = 86.5

[[record]]
structure_smiles_string = "O=C(Nc1ccc(Sc2ccc([N+](=O)[O-])cc2)cc1)O[C@H](Cn1ccnc1)c1ccc(Cl)cc1"
value_units = "%"
recorded_result = 12.5

[[record]]
structure_smiles_string = "O=C(NCCCn1ccnc1)O[C@H](Cn1ccnc1)c1ccc(F)cc1"
value_units = "%"
recorded_result = 93.9

[[record]]
structure_smiles_string = "O=C(O[C@H](Cn1ccnc1)c1ccccc1)c1ccc(-c2ccccc2)cc1"
value_units = "%"
recorded_result = 0.7

[[record]]
structure_smiles_string = "O=C(O[C@@H](Cn1ccnc1)c1ccccc1)c1ccc(-c2ccccc2)cc1"
value_units = "%"
recorded_result = 79.5

[[record]]
structure_smiles_string = "O=C(Nc1ccc(N2CCN(c3ccc(Cl)c(Cl)c3)CC2)cc1)O[C@@H](Cn1ccnc1)c1ccc(Cl)cc1Cl"
value_units = "%"
recorded_result = 0.8

[[record]]
structure_smiles_string = "CC(C)c1ccc(NC(=O)O[C@@H](Cn2ccnc2)c2ccc(Cl)cc2)cc1"
value_units = "%"
recorded_result = 90


###

Entries annotated with measured Activity
# Tested on: Sterol 14-alpha demethylase (Trypanosoma cruzi (strain CL Brener))
# Measurement notes: Inhibition of Trypanosoma cruzi CYP51 assessed as substrate conversion level using [3H]eburicol substrate at inhibitor/enzyme molar ratio of 2 after 1 hr by HPLC method
# Design: scale not given: the % may be the effect or the level left
Parameter: Activity (%)

[[record]]
structure_smiles_string = "O=C(Nc1ccc(N2CCN(c3ccc(Cl)c(Cl)c3)CC2)cc1)O[C@H](Cn1ccnc1)c1ccc(Cl)cc1Cl"
recorded_result = 3.8

[[record]]
structure_smiles_string = "CC(C)c1ccc(NC(=O)O[C@H](Cn2ccnc2)c2ccc(F)cc2)cc1"
recorded_result = 8.5

[[record]]
structure_smiles_string = "O=C(NCCCn1ccnc1)O[C@@H](Cn1ccnc1)c1ccc(F)cc1"
recorded_result = 89.2


###

# Test system: Trypanosoma cruzi
# Measurement notes: Antitrypanosomal activity against Trypanosoma cruzi Tulahuen trypomastigotes expressing green florescent protein infected in cardiomyocytes assessed as inhibition of parasite growth at 10 nM after 72 hrs by fluorescence microscopy
# Format: functional
Use 60% as the dividing line for inhibition at 0.01 µM, with the line itself on the yes side and lower values as no.

[[record]]
molecule = "O=C(Nc1ccc(Sc2ccc([N+](=O)[O-])cc2)cc1)O[C@@H](Cn1ccnc1)c1ccc(Cl)cc1"
label_value = "yes"

[[record]]
molecule = "CC(C)c1ccc(NC(=O)O[C@@H](Cn2ccnc2)c2ccc(Cl)cc2)cc1"
label_value = "no"

[[record]]
molecule = "O=C(Nc1ccc(Sc2ccc([N+](=O)[O-])cc2)cc1)O[C@H](Cn1ccnc1)c1ccc(Cl)cc1"
label_value = "yes"

[[record]]
molecule = "O=C(O[C@@H](Cn1ccnc1)c1ccccc1)c1ccc(-c2ccccc2)cc1"
label_value = "no"

[[record]]
molecule = "O=C(O[C@H](Cn1ccnc1)c1ccccc1)c1ccc(-c2ccccc2)cc1"
label_value = "yes"

[[record]]
molecule = "CC(C)c1ccc(NC(=O)O[C@H](Cn2ccnc2)c2ccc(F)cc2)cc1"
label_value = "yes"

[[record]]
molecule = "O=C(Nc1ccc(N2CCN(c3ccc(Cl)c(Cl)c3)CC2)cc1)O[C@H](Cn1ccnc1)c1ccc(Cl)cc1Cl"
label_value = "yes"

[[record]]
molecule = "CC(C)c1ccc(NC(=O)O[C@@H](Cn2ccnc2)c2ccc(F)cc2)cc1"
label_value = "no"

[[record]]
molecule = "O=C(Nc1ccc(N2CCN(c3ccc(Cl)c(Cl)c3)CC2)cc1)O[C@@H](Cn1ccnc1)c1ccc(Cl)cc1Cl"
label_value = "yes"

[[record]]
molecule = "CC[C@@H]([C@H](C)O)n1ncn(-c2ccc(N3CCN(c4ccc(OC[C@@H]5CO[C@@](Cn6cncn6)(c6ccc(F)cc6F)C5)cc4)CC3)cc2)c1=O [POSACONAZOLE]"
label_value = "yes"

[[record]]
molecule = "CC(C)c1ccc(NC(=O)O[C@H](Cn2ccnc2)c2ccc(Cl)cc2)cc1"
label_value = "yes"


###

Entries annotated with measured log10 of Ks
# Tested on: Sterol 14-alpha demethylase (Trypanosoma cruzi (strain CL Brener))
# Measurement notes: Binding affinity to Trypanosoma cruzi CYP51 by spectral ligand binding assay
Parameter: log10 of Ks (log10 of the value in µM)

[[record]]
structure_smiles_string = "O=C(O[C@@H](Cn1ccnc1)c1ccccc1)c1ccc(-c2ccccc2)cc1"
recorded_result = -1.06

[[record]]
structure_smiles_string = "O=C(NCCCn1ccnc1)O[C@H](Cn1ccnc1)c1ccc(F)cc1"
recorded_result = -0.22

[[record]]
structure_smiles_string = "O=C(Nc1ccc(Sc2ccc([N+](=O)[O-])cc2)cc1)O[C@H](Cn1ccnc1)c1ccc(Cl)cc1"
recorded_result = -0.79

[[record]]
structure_smiles_string = "O=C(O[C@H](Cn1ccnc1)c1ccccc1)c1ccc(-c2ccccc2)cc1"
recorded_result = -1.34

[[record]]
structure_smiles_string = "CC(C)c1ccc(NC(=O)O[C@H](Cn2ccnc2)c2ccc(F)cc2)cc1"
recorded_result = -1.49

[[record]]
structure_smiles_string = "CC(C)c1ccc(NC(=O)O[C@@H](Cn2ccnc2)c2ccc(F)cc2)cc1"
recorded_result = -1.08

[[record]]
structure_smiles_string = "O=C(NCCCn1ccnc1)O[C@@H](Cn1ccnc1)c1ccc(F)cc1"
recorded_result = -1.06

[[record]]
structure_smiles_string = "O=C(Nc1ccc(Sc2ccc([N+](=O)[O-])cc2)cc1)O[C@@H](Cn1ccnc1)c1ccc(Cl)cc1"
recorded_result = -0.15

